- STUDY_TARGET: PI3Kα (Mus musculus, UniProt P42337)
- Construct: endogenous in cells
- Sequence (P42337 whole entry): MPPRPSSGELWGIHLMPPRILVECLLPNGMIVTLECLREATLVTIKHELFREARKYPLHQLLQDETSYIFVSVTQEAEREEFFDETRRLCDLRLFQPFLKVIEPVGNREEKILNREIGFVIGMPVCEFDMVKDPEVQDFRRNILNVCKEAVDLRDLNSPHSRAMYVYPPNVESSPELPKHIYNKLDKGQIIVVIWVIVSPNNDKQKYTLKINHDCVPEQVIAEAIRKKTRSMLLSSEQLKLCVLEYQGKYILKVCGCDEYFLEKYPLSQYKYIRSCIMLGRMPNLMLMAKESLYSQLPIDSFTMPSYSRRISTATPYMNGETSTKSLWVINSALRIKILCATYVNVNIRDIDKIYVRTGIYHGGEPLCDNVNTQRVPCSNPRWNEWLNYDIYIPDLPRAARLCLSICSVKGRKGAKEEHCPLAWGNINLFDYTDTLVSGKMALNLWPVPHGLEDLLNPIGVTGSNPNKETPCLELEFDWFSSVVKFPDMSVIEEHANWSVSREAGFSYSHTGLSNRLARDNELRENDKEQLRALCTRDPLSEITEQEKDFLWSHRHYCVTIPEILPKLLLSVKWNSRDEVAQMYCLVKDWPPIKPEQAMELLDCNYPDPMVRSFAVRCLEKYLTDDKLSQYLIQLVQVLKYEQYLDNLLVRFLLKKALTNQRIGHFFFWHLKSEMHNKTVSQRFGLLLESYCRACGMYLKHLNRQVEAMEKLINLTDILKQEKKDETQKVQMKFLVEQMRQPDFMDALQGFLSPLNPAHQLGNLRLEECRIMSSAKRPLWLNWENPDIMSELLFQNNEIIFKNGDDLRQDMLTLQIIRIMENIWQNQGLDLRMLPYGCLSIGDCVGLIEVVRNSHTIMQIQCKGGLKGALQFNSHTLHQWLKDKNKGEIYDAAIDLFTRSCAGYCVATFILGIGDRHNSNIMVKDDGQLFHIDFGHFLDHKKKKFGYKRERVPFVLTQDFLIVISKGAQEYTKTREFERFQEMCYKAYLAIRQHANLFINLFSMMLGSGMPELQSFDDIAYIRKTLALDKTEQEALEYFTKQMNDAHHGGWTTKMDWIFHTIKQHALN
- Sequence (P26450 whole entry partner): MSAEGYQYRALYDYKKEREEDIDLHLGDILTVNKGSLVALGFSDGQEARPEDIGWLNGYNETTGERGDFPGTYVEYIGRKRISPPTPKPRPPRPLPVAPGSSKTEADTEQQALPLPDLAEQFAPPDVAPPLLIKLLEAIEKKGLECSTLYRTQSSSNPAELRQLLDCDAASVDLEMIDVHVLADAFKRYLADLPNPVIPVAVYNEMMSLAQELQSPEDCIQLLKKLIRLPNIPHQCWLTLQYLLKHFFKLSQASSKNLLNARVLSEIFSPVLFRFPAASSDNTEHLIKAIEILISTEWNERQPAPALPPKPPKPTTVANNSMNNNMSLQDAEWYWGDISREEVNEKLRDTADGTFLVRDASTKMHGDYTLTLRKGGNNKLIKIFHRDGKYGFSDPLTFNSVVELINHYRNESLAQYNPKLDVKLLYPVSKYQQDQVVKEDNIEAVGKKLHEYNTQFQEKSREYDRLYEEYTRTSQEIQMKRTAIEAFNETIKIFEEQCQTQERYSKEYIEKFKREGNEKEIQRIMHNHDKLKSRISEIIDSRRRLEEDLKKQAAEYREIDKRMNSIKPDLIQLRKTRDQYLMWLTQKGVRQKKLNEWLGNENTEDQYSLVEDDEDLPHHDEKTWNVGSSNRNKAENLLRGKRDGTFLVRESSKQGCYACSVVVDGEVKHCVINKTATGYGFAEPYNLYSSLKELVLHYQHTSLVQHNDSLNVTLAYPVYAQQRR
- TEST_PROTOCOL: PI3Kα-dependent cell-based assay: PDGF-BB mediated AKT phosphorylation in Swiss-3T3 cells
- MEASUREMENT_CONTEXT: PDGF-BB-induced AKT phosphorylation, Swiss-3T3 fibroblasts
QUANTITY_MEASURED: EC50

Item: Cc1cccc2nc(C(C)n3cnc4c(N)ncnc43)c(-c3ccccc3)nc12 (stereo not drawn) | EC50: > 20 µM

For record Cc1cccc2nc(C(C)Nc3nc(N)nc4[nH]cnc34)c(-c3ccccc3)nc12 (stereo not drawn) the listed EC50 is 17.7 µM

Recorded result, Cc1ccc(-c2nc3ccccc3nc2C(C)Nc2ncnc3[nH]cnc23)cc1 (stereo not drawn) , EC50: > 20 µM

====

- STUDY_TARGET: PI3Kδ (p110δ/p85α) (Homo sapiens, UniProt O00329)
- Construct: purchased Invitrogen
- Sequence (O00329 whole entry): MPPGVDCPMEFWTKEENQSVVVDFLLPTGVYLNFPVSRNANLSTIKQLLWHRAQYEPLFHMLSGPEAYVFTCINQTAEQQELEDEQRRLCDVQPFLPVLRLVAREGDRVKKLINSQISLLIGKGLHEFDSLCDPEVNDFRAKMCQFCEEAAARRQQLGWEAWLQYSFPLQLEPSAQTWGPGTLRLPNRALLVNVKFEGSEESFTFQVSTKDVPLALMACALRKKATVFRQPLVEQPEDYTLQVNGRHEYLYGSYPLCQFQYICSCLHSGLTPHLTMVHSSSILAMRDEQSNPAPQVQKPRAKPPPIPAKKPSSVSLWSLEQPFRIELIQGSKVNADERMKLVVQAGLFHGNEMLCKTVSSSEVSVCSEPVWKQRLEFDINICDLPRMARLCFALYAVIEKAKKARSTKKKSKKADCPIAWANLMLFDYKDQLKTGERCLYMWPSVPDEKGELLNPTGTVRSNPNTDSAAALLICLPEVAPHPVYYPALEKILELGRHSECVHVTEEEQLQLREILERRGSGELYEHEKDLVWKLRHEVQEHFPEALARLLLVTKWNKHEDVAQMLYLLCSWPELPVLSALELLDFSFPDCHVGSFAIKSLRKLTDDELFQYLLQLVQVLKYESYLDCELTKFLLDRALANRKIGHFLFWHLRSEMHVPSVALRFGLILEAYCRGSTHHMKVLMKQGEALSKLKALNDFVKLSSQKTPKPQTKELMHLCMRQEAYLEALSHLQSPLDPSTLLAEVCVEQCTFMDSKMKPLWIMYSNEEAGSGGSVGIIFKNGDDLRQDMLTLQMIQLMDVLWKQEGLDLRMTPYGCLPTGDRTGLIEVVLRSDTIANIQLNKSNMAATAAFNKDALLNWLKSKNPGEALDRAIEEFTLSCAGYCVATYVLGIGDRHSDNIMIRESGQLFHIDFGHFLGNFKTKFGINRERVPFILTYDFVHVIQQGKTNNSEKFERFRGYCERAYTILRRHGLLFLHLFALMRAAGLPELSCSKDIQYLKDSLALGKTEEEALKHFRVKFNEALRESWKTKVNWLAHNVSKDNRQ
- Sequence (P27986 whole entry partner): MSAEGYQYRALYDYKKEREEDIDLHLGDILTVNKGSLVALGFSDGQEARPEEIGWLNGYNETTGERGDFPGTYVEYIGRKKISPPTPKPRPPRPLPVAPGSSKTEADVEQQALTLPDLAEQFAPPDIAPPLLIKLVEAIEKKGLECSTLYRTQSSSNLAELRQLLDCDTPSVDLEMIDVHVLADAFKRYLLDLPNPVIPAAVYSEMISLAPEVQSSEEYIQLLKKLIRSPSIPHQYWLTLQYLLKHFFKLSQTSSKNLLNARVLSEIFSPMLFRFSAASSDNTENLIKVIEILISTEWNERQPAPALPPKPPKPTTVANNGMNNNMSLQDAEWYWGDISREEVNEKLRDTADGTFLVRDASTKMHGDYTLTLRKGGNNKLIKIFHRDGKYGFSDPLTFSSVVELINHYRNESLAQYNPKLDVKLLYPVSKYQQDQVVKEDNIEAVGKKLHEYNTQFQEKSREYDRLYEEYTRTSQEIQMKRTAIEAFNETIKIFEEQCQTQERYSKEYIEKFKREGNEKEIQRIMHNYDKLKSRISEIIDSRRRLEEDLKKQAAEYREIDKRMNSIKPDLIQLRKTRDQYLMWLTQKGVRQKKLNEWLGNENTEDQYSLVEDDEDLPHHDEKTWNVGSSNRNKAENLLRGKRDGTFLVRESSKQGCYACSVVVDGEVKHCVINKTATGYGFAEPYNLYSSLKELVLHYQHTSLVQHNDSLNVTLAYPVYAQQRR
- TEST_PROTOCOL: PI3K biochemical enzyme assay (Adapta universal kinase assay), p110 delta/p85 alpha
- MEASUREMENT_CONTEXT: Table 2, PI3k biochemical assays; read-out: p110δ/p85α IC50
QUANTITY_MEASURED: pIC50
Scale note: pIC50 = -log10(concentration in M).

Some compounds with known pIC50 results, for comparison:
Cc1cccc(-c2nc3ccccc3nc2C(C)Nc2ncnc3[nH]cnc23)c1 (stereo not shown) : 7.44
Cc1cccc2nc(C(C)Nc3nc(N)nc4[nH]cnc34)c(-c3ccc(F)cc3)nc12 (stereo not shown) : 8.70
CCC(Nc1ncnc2[nH]cnc12)c1nc2cccc(F)c2nc1-c1ccccc1 (stereo not shown) : 7.43

What the record says about CCC(Nc1ncnc2[nH]cnc12)c1nc2ccccc2nc1-c1ccccc1 (stereo not shown) : pIC50 is 7.77

====

The reader will find reported inhibition at 1 µM values listed item by item below.
- STUDY_TARGET: PI3Kδ (p110δ/p85α) (Homo sapiens)
- Construct: purchased Invitrogen
- TEST_PROTOCOL: PI3K biochemical enzyme assay (Adapta universal kinase assay), p110 delta/p85 alpha
- MEASUREMENT_CONTEXT: 1 μM; read-out: PI3Kδ % inhib
Numeric answer only, unit % assumed.

Cc1cccc2nc(C(C)n3cnc4c(N)ncnc43)c(-c3ccccc3)nc12 (stereo not shown) : 86
Cc1cccc2nc(C(C)Nc3ncnc4[nH]cnc34)c(-c3ccc(F)cc3)nc12 (stereo not shown) : 71
CCC(Nc1ncnc2[nH]cnc12)c1nc2cccc(F)c2nc1-c1ccccc1 (stereo not shown) : 86

Summary for this compound, Cc1cccc(-c2nc3ccccc3nc2C(C)Nc2ncnc3[nH]cnc23)c1 (stereo not shown) : inhibition at 1 µM is 86

====

- STUDY_TARGET: PI3Kα (p110α/p85α) (Homo sapiens, UniProt P42336)
- Construct: purchased Invitrogen
- Sequence (P42336 whole entry): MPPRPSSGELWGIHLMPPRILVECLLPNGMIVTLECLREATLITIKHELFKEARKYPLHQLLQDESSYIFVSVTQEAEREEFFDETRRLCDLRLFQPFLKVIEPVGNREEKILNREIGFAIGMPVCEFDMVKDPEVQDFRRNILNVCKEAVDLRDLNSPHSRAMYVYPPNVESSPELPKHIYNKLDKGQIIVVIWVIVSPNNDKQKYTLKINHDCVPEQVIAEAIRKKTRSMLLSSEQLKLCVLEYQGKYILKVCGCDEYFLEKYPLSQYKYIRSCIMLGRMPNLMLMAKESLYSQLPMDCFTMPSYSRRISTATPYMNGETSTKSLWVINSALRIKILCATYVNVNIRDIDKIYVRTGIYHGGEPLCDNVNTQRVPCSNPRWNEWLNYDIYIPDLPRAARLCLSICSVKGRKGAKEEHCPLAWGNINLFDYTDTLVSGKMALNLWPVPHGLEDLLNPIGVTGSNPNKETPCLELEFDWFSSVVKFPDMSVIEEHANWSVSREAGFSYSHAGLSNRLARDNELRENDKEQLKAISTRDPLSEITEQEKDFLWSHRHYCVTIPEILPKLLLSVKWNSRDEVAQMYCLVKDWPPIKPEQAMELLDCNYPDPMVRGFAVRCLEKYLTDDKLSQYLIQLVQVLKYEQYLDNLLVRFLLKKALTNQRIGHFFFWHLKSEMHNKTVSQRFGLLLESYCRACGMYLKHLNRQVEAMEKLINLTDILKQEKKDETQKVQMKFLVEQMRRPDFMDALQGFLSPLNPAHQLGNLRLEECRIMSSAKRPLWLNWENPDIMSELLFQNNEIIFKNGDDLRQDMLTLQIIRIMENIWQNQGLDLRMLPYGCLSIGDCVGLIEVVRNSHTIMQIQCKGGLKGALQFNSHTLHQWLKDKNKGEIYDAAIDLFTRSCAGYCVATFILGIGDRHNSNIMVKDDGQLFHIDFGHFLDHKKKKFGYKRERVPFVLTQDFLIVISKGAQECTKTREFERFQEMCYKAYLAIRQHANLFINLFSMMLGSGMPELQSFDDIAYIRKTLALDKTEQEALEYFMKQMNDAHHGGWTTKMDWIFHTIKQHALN
- Sequence (P27986 whole entry partner): as the sequence (P27986 whole entry partner) above
- TEST_PROTOCOL: PI3K biochemical enzyme assay (Adapta universal kinase assay), p110 alpha/p85 alpha
- MEASUREMENT_CONTEXT: Table 2, PI3k biochemical assays; read-out: p110α/p85α IC50
QUANTITY_MEASURED: pIC50
Just so you know, pIC50 here is -log10 of the concentration in molar units; reply with that number alone.

Reference set, count: 2
CC(Nc1ncnc2[nH]cnc12)c1nc2ccccc2nc1-c1ccccc1 (stereo not shown) : 5.16
Cc1cccc2nc(C(C)Nc3nc(N)nc4[nH]cnc34)c(-c3ccccc3)nc12 (stereo not shown) : 5.59

Next:
Kindly note the recorded pIC50 for Cc1cccc2nc(C(C)Nc3nc(N)nc4[nH]cnc34)c(-c3ccc(F)cc3)nc12 (stereo not shown) , which is 6.39

# credit: patent US20140235643A1
